# Study target: KLHL37 (Homo sapiens)
# Construct: recombinant KLHL37-His (full-length cDNA, pET-28a, E. coli)
# Sequence (O14682 whole entry): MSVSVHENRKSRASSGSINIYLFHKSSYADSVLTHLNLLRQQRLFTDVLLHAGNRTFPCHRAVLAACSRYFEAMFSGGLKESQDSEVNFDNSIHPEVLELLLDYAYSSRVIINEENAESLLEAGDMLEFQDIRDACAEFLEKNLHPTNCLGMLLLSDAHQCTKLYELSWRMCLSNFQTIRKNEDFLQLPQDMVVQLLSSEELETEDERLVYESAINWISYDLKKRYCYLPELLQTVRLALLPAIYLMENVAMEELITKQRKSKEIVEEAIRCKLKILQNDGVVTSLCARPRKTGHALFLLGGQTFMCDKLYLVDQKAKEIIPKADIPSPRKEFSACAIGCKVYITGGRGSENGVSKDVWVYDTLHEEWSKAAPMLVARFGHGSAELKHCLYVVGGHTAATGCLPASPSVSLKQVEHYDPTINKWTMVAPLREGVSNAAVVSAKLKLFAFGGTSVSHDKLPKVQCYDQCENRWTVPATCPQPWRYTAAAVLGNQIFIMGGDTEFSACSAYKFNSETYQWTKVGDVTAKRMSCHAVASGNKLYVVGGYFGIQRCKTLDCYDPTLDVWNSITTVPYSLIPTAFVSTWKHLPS
# Measurement notes: SPR (Biacore X100, KLHL37-His immobilized on CM5 chip)
Readout kind: pKd
Give bare numbers, as −log10 of the molar value.

Challenge: Fill in: pKd on KLHL37 (Homo sapiens), entry `CC1(C)CC[C@]2(NC(=O)C(C)(F)F)CC[C@]3(C)[C@H](C(=O)C=C4[C@@]5(C)C=C(C#N)C(=O)C(C)(C)[C@@H]5CC[C@]43C)[C@@H]2C1`
Response given: 4.82
